- Tested on: MS2 coat protein
- METHOD_NOTES: apparent KD of MS2 coat protein; higher = weaker reporter binding
- CONDITION_DETAILS: Eterna round: R107; input ligand: theophylline 20 uM
VALUE_TYPE: apparent KD of MS2 coat protein (µM)
Respond numerically; units are µM and should not be typed.

CAUAUAUAAGCGGCCGCCACUUACUCAUGAGGUAACAACAUGAGGAUCACCCAUGUUUGAGGAUCAAGGACCGGGCUUAUAUAUG [AstrosSSTryB#5] ... 0.0273

Query block: Please give measured apparent KD of MS2 coat protein of the following entry: UCACAUGAGGAUCACCCAUGUACAACUGAAGGAGCGAGACAAAACUCAGGUAGGUCGCAGAAUAAACAAUAGCAUACGACAUGGG [Exclusion Arginine A GF 19]
Result block: 0.0431

Query block: Please give measured apparent KD of MS2 coat protein of the following entry: CGGUCGGUCGGUCGGUGAGUAUGGGAUGAAGGAGCGUGGGAAGCUACAGGUAGGUCGCAUCCGGGACAUGAGGAUCACCCAUGUU [#19 Same State - Arginine A]
Result block: 0.0433

----------
- System: MS2 coat protein
- METHOD_NOTES: apparent KD of MS2 coat protein; higher = weaker reporter binding
- CONDITION_DETAILS: Eterna round: R107; input ligand: theophylline 2 mM
Threshold check on apparent KD of MS2 coat protein: at or above 40 nM gives Satisfied, strictly below gives Not satisfied.

Field: example entries. Status: answers known.
UCGGAUGCGGCGGCCGCCACUCGCGGAUAACGAUAGCUUAACAUGAGGAUCACCCAUGUGUCAUGGAGGACCGGGCCCAUACCGU [pbpmullin] ... Not satisfied
GAGAGAGGAGUGCGGCGUGUUCCGCUCCGUCGAGGACCGGUACGGCCGCCACUCGACAUGAGGAUCACCCAUGUCCUCUCUCGCG [#1 Exclusion - Tryptophan A Attempt #4 (HarryS)] ... Satisfied
UUGGCAGCAUGGGUGGCUGCCAAGGCUGAUACCAGCCACGAAAGUGGCCCUUGGCAGCAGCAAACAUGAGGAUCACCCAUGUUAA [(T)''-(M)'-(T)'-(Theo)-(Ms2)_Design3] ... Satisfied
ACCUGCGUUUGAUUCUAUCAGACGCAGGUUCGAGGACCGGUACGGCCGCCACUCGGACAUGAGGAUCACCCAUGUUUGACAUGGG [#04 Exclusion Tryptophan A] ... Satisfied
CACAUGAGGAUCACCCAUGUCUGAACUGAAGGAGCGCUAAAUAAGGCAGGUAGGUCGCGGAAUUUUGUGUGCAUAUGCACAUGGG [9.P] ... Not satisfied
GGUUACUCUACGGCCGCCACUGAAAAGUAAAUAUUAAUGUACAUGACAUGAGGAUCACCCAUGUACAGGACCGGGUAGUGUAACC [Tryptophan B 13] ... Satisfied
CUAUAUGGAAACAUAUAGAAGCGAAAGCAACGAGGACCGGUACGGCCGCCACUCGAAGAGUGGUGGACAUGAGGAUCACCCAUGU [Design 3] ... Satisfied
GCACGACAUGAGGAUCACCCAUGUGCCGAUACCAGCCGGAUAUACGGCCCUUGGCAGCGGAGUGGAUCCGGAGGACCAUGGGUAA [Same State Theophylline A GF7] ... Satisfied
GCACCAGGUACGGAUACCAGAGCAAGCCAAAUGAGUGACCAUGAGGAUCACCCAUGGUUGCUCCCUUGGCAGCCGUACCUGGUGC [ETB NP+V+V2 #13 Diff Apt, +-Same Structure] ... Satisfied
GCCGCGGCCGCGAUACACAUGGGUGUGUAACGAGGACCGGUACGGCCGCCACUCGAGAUGAUGUACAUGAGGAUCACCCAUGUAC [Exclusion Tryp A GF13] ... Not satisfied

Now turn to the next sequence.
Query block: Quick check, apparent KD of MS2 coat protein >= 40 nM? GAGCUCGUGGACUGGCGUGCUCCGCUCCGUCGAGGACCGGUACGGCCGCCACUCGACAUGAGGAUCACCCAUGUGUGAGCUCGCU [#1 Exclusion - Tryptophan A Attempt #21 (HarryS)]
Result block: Satisfied

----------
The sequences listed here are annotated with their apparent KD of K4 kissing-loop reporter.
- Tested on: K4 kissing-loop RNA reporter;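 note: bound reporter read as fluorescence of individual clusters on recovered sequencing chips by microscopy, with normalized cluster intensities fitted with a binding model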
- METHOD_NOTES: apparent KD of K4 kissing-loop reporter; higher = weaker reporter binding
- CONDITION_DETAILS: Eterna round: R107; input ligand: none
Respond numerically; units are nM and should not be typed.

CUCGAGUGAUGUUCGAUUAUUUAUACAGAUACCAGUGAAUUUUAACACCCUUGGCAGCUGGUUGUAUCAUUGUUUUUUACAAAAG [JR_ExcTheophyA_Sub007] ... 117

Query block: Please give measured apparent KD of K4 kissing-loop reporter of the following entry: AGUACAAUGGCGGCCGCCACUCAACGCAGAUCAAAGAUCUGCGAUCACUCAGUGAUGUUGAGUGAGAGGACCGGGCCUUUGUACA [Omei KL Tryp B SS B v6]
Result block: 307

Query block: Please give measured apparent KD of K4 kissing-loop reporter of the following entry: GUCCCGAGUGAUGUUCGGGUCGUUCGGGAAGGAGCGCCCGCAAGGGCAGGUAGGUCGCCCGGAUCUCUCAGGUAACUGAGAGACC [#2 Same State - Arginine A Attempt #28 (HarryS)]
Result block: 431

Query block: Please give measured apparent KD of K4 kissing-loop reporter of the following entry: GCUAUGGUAGGAAGGAGCGCUUACUCGGUCAUAAGAGUGAUGUUCGAGACCGAGUAUUUAUAGCAGGUAGGUCGCCUACUAUAGC [Arginine B K4 6]
Result block: 2.37

Query block: Please give measured apparent KD of K4 kissing-loop reporter of the following entry: CGCGGCCGGCCGGAUACCAGUGACCCGCUGGAAACCGCGGGCCCAGAGUGAUGUUCGGGACACCCUUGGCAGCCGCCUGGGCGUG [#2 Same State - Theophylline B Attempt #2 (HarryS)]
Result block: 440

----------
The sequences listed here are annotated with their apparent KD of MS2 coat protein.
- Tested on: MS2 coat protein
- METHOD_NOTES: apparent KD of MS2 coat protein; higher = weaker reporter binding
- CONDITION_DETAILS: Eterna round: R107; input ligand: tryptophan 2.4 mM
Respond numerically; units are nM and should not be typed.

Some solved cases for reference:
CGUCGAGACUGAAGGAGCGAGAUAACAACAUUGGGUCUCAACAUGAGGAUCACCCAUGUAUCUCAGGUAGGUCGCGGUGUCACCG [Exclusion Arginine B GF20] ... 298
CCGUCCCUCGGAAGGAGCGGCGCAAUGUAAGGGACCUUUUAUACAUGAGGAUCACCCAUGUGCCAGGUAGGUCGCCGAGAGCGUG [Erxeatge] ... 140
ACAUGAGGAUCACCCAUGUACAUGAGGGAAGGAGCGGUACAUGUGCCAGGUAGGUCGCCCAACAGCAUCAGCCAUGUACAACAGG [zqwmullin] ... 61
GCUUAGAAACCUGAUACCAGUCAGCCCUAUGACAUGAGGAUCACCCAUGUGAUACUCACGGACCCUUGGCAGCAGGGUCGAUUAC [theeternabot_sameState_MS2_Theo_B_17] ... 1000
GGAUCCAUCCGAAGGAGCGUCGGAAAUGGGUAAACAUGAGGAUCACCCAUGUAAAGGGAACGGCAGGUAGGUCGCGGAUGGAUCC [#25 Same State - Arginine B] ... 195
UAAAUACAUGAGGAUCACCCAUGUUUGGAUACCAGAUAUGACAUUAUCCCUUGGCAGCCAUUCGUUCCAAAUGCUAUUGUGAAGG [theeternabot_sameState_MS2_Theo_A_26] ... 22
UCUUUCUAUGUAGAUACCAGCAUGUUAUAUUUCUAAUGACAUGAGGAUCACCCAUGUAAAUGCCCUUGGCAGCUACAUUUUCUUU [SSTHB #4] ... 23.7
UCCACAUGAGGAUCACCCAUGUAAUCAGAUACCAGUGACGAAAGUCACCCUUGGCAGCUGAUUACUUUAGUUCGAGGGUGUUUGA [EThA NP+V+V2 #4 Same Structure] ... 79.5
UGACAUUGCUCAGAUACCAGACAUGAGCAUCAGCCAUGUGCCAACAAGUACAAAAUAAAUGUCCCUUGGCAGCUGAGCAAUGUCU [TheoBX 23 #MS2Left #AlternativeMS2 #Theo22] ... 12.3
AUAAGUAAGUUUUCGUGUUUUAUUACAGAUACCAGACUAUACGUUGUCCCUUGGCAGCUGGAUUACAUGAGGAUCACCCAUGUUG [#25 Exclusion-TheophyllineA] ... 23.9

Pending sequence:
Query block: Please give measured apparent KD of MS2 coat protein of the following entry: GUACGAGUUGACUGUGAGACUGGCGUGGAAGGAGCGCACGGAGGUGCAGGUAGGUCGCCACAUGAGGAUCACCCAUGUCGGGCCG [Qutigeveat]
Result block: 26.7
